// viscosity lookup, one value per entry
# measurement-protocol: xn = mol fraction of the nth substance listed
# cond: 288.15 K; 100 kPa; Liquid; Cone and plate viscometry; x1 = 0.5
measurement-kind: viscosity (mPa·s)

[[record]]
compound = "CCCCCCn1cc[n+](C)c1.O=[N+]([O-])c1cn[n-]c1 [1-hexyl-3-methylimidazolium 4-nitropyrazolide] + CCCCCCCCCCCCCC[P+](CCCCCC)(CCCCCC)CCCCCC.O=S(=O)([N-]S(=O)(=O)C(F)(F)F)C(F)(F)F"
measurement_kind = "viscosity"
experimental_value = 707

[[record]]
compound = "CCCCCCC[P+](CC)(CC)CC.O=[N+]([O-])c1cn[n-]c1 [triethylheptylphosphonium 4-nitropyrazolide] + CC[P+](CC)(CC)COCCOC.O=S(=O)([N-]S(=O)(=O)C(F)(F)F)C(F)(F)F"
measurement_kind = "viscosity"
experimental_value = 126


* * *

# measurement-protocol: xn = mol fraction of the nth substance listed
# cond: 323.15 K; 100 kPa; Liquid; Cone and plate viscometry; x1 = 0.6
± gives the expanded uncertainty stated by the source.
// viscosity lookup, one value per entry
measurement-kind: viscosity

[[record]]
compound = "CC(=O)[O-].CCCCCCCCCCCCCC[P+](CCCCCC)(CCCCCC)CCCCCC [trihexyl(tetradecyl)phosphonium acetate] + CCCCCC[n+]1ccn(C)c1.O=S(=O)([N-]S(=O)(=O)C(F)(F)F)C(F)(F)F"
measurement_kind = "viscosity"
experimental_value = "124 ± 15 mPa·s"

[[record]]
compound = "CCCCCCCCCCCCCC[P+](CCCCCC)(CCCCCC)CCCCCC.N#Cc1ccc[n-]1 [trihexyl(tetradecyl)phosphonium 2-cyanopyrrolide] + CCCCCC[n+]1ccn(C)c1.O=S(=O)([N-]S(=O)(=O)C(F)(F)F)C(F)(F)F"
measurement_kind = "viscosity"
experimental_value = "85 ± 10 mPa·s"

[[record]]
compound = "CCCCCCn1cc[n+](C)c1.N#Cc1ccc[n-]1 [1-hexyl-3-methylimidazolium 2-cyanopyrrolide] + CCCCCCCCCCCCCC[P+](CCCCCC)(CCCCCC)CCCCCC.O=S(=O)([N-]S(=O)(=O)C(F)(F)F)C(F)(F)F"
measurement_kind = "viscosity"
experimental_value = "82 ± 10 mPa·s"

[[record]]
compound = "CCCCCCCC[P+](CC)(CC)CC.O=[N+]([O-])c1cn[n-]c1 [triethyloctylphosphonium 4-nitropyrazolide] + CCCCCCn1cc[n+](C)c1C.O=S(=O)([N-]S(=O)(=O)C(F)(F)F)C(F)(F)F"
measurement_kind = "viscosity"
experimental_value = "67 ± 8 mPa·s"


* * *

# measurement-protocol: xn = mol fraction of the nth substance listed
# cond: 278.15 K; 100 kPa; Liquid; Cone and plate viscometry; x1 = 0.6
± gives the expanded uncertainty stated by the source.
// viscosity lookup, one value per entry
measurement-kind: viscosity

[[record]]
compound = "CCCCCCCC[P+](CC)(CC)CC.O=[N+]([O-])c1cn[n-]c1 [triethyloctylphosphonium 4-nitropyrazolide] + CCCCCCn1cc[n+](C)c1C.O=S(=O)([N-]S(=O)(=O)C(F)(F)F)C(F)(F)F"
measurement_kind = "viscosity"
experimental_value = "1244 ± 170 mPa·s"

[[record]]
compound = "CCCCCCn1cc[n+](C)c1.N#Cc1ccc[n-]1 [1-hexyl-3-methylimidazolium 2-cyanopyrrolide] + CCCCCCCCCCCCCC[P+](CCCCCC)(CCCCCC)CCCCCC.O=S(=O)([N-]S(=O)(=O)C(F)(F)F)C(F)(F)F"
measurement_kind = "viscosity"
experimental_value = "1379 ± 190 mPa·s"

[[record]]
compound = "CCCCCCCCCCCCCC[P+](CCCCCC)(CCCCCC)CCCCCC.N#Cc1ccc[n-]1 [trihexyl(tetradecyl)phosphonium 2-cyanopyrrolide] + CCCCCC[n+]1ccn(C)c1.O=S(=O)([N-]S(=O)(=O)C(F)(F)F)C(F)(F)F"
measurement_kind = "viscosity"
experimental_value = "1407 ± 190 mPa·s"

[[record]]
compound = "CC(=O)[O-].CCCCCCCCCCCCCC[P+](CCCCCC)(CCCCCC)CCCCCC [trihexyl(tetradecyl)phosphonium acetate] + CCCCCC[n+]1ccn(C)c1.O=S(=O)([N-]S(=O)(=O)C(F)(F)F)C(F)(F)F"
measurement_kind = "viscosity"
experimental_value = "2588 ± 360 mPa·s"

